The reported measurements were obtained from patent EP2338890A1.

- Measurement Notes: logP at pH 3.5, given with the characterisation data
- Assay type: physicochemical
- Run Conditions: pH3.5
Recorded logD, one value per entry.
Outcome Measure: logD

compound="Fc1ccc(-c2c(-c3ccncc3)[nH]c3nccnc23)cc1 [Compound 1]" outcome_measure=logD observed=1.33
compound="C#CCn1c(-c2ccncc2)c(-c2ccc(F)cc2)c2nccnc21 [Compound 2]" outcome_measure=logD observed=2.22
